- Tested on: isolated ileum of guinea pigs
- ASSAY REMARKS: Test on the isolated ileum of guinea pigs (agonistic activity)
- CONDITION INFO: Cavia porcellus; isolated guinea pig ileum, contraction, Tyrode's solution, 37° C.; read-out: pD2 (negative logarithm of the dose which produces 50% of the maximum effect) (converted)
OBSERVATION TYPE: EC50 (µM)
Field format: number, assumed µM, no unit text.

Using the record for CON=CC1CCCNC1 (centres unmarked) , report its EC50.
0.891

Using the record for C#CCON=CC1CCCNC1 (centres unmarked) , report its EC50.
4.47

Using the record for CON=CC1CCCN(O)C1 (centres unmarked) , report its EC50.
11.2

Using the record for COC(=O)C1=CCCN(C)C1 [Arecoline, reference compound] , report its EC50.
0.126
